Target: Melanocyte-stimulating hormone receptor (Homo sapiens)
Experiment: Displacement of [125I]-NAD-alpha-MSH from human recombinant MC1 receptor expressed in BHK570 cells after 90 mins in presence of ovalbumin
Please respond with reported Ki for every item in the list.
Returns: string containing the numeric result and its unit.

Examples with their reported Ki follow.
>  <Compound string>
CCCCCCCCCCCCCCCC(=O)NCC(=O)N[C@@H](CO)C(=O)N[C@@H](CCC(N)=O)C(=O)N[C@@H](Cc1cnc[nH]1)C(=O)N[C@@H](CO)C(=O)N[C@@H](CCCC)C(=O)N[C@H]1CCC(=O)NCCCC[C@@H](C(N)=O)NC(=O)[C@H](Cc2c[nH]c3ccccc23)NC(=O)[C@H](CCCNC(=N)N)NC(=O)[C@@H](Cc2ccccc2)NC(=O)[C@@H]2C[C@@H](O)CN2C1=O

>  <Measured property>
Ki

>  <Data value>
8 nM

$$$$
>  <Compound string>
CCCC[C@H](NC(=O)[C@H](CO)NC(=O)[C@H](Cc1cnc[nH]1)NC(=O)[C@H](CCC(N)=O)NC(=O)[C@H](CO)NC(=O)CNC(C)=O)C(=O)N[C@H]1CCC(=O)NCCCC[C@@H](C(N)=O)NC(=O)[C@H](Cc2c[nH]c3ccccc23)NC(=O)[C@H](CCCNC(=N)N)NC(=O)[C@@H](Cc2ccccc2)NC(=O)[C@@H]2C[C@@H](O)CN2C1=O

>  <Measured property>
Ki

>  <Data value>
200 nM

$$$$

Now, please, on to the next compound.
Item: CCCC[C@H](NC(=O)[C@@H](N)CNC(=O)[C@H](Cc1cnc[nH]1)NC(=O)[C@H](CCC(N)=O)NC(=O)[C@H](CO)NC(=O)CNC(=O)COCCOCCNC(=O)CCCCCCCCCCCCCCCc1nnn[nH]1)C(=O)N[C@H]1CCC(=O)NCCCC[C@@H](C(N)=O)NC(=O)[C@H](Cc2c[nH]c3ccccc23)NC(=O)[C@H](CCCN=C(N)N)NC(=O)[C@@H](Cc2ccccc2)NC(=O)[C@@H]2C[C@@H](O)CN2C1=O | Ki: 700 nM

----------
Biological target: UniProtKB P33032
Sequence (P33032 whole entry): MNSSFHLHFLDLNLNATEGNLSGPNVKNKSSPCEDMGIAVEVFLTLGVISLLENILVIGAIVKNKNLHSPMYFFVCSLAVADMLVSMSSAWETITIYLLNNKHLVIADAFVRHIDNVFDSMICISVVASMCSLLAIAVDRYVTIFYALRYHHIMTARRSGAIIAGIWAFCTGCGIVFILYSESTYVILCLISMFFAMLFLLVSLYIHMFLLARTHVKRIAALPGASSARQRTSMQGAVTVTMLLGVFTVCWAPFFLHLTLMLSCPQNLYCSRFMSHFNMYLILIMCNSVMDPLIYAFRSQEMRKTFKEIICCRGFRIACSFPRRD
Assay: Displacement of [125I]-NAD-alpha-MSH from human recombinant MC3 receptor human MC5 expressed in BHK570 cells after 1 hr in presence of ovalbumin
Returns: string. Value is 1 if measured Ki is below 40 nM, and 0 if it is greater than or equal to it.

# example entries with known answers
>  <Compound string>
CCCC[C@H](NC(=O)[C@H](CCC(=O)O)NC(=O)[C@H](Cc1c[nH]cn1)NC(=O)[C@H](CCC(=O)O)NC(=O)[C@H](CCC(=O)O)NC(=O)CNC(=O)COCCOCCNC(=O)CCCCCCCCCCCCCCCc1nnn[nH]1)C(=O)N[C@H]1CCC(=O)NCCCC[C@@H](C(N)=O)NC(=O)[C@H](Cc2c[nH]c3ccccc23)NC(=O)[C@H](CCCNC(=N)N)NC(=O)[C@@H](Cc2ccccc2)NC(=O)[C@@H]2C[C@@H](O)CN2C1=O

>  <Class label>
0

$$$$
>  <Compound string>
CCCC[C@H](NC(=O)[C@H](CCC(=O)O)NC(=O)[C@H](CCC(=O)O)NC(=O)[C@H](CCC(=O)O)NC(=O)[C@H](CCC(=O)O)NC(=O)CNC(=O)COCCOCCNC(=O)CCCCCCCCCCCCCCCc1nnn[nH]1)C(=O)N[C@H]1CCC(=O)NCCCC[C@@H](C(N)=O)NC(=O)[C@H](Cc2c[nH]c3ccccc23)NC(=O)[C@H](CCCNC(=N)N)NC(=O)[C@@H](Cc2ccccc2)NC(=O)[C@@H]2C[C@@H](O)CN2C1=O

>  <Class label>
0

$$$$
>  <Compound string>
CCCCCCCCCCCCCCCC(=O)NS(=O)(=O)CCCC(=O)NCC(=O)N[C@@H](CO)C(=O)N[C@@H](CCC(N)=O)C(=O)N[C@@H](Cc1cnc[nH]1)C(=O)N[C@@H](CO)C(=O)N[C@@H](CCCC)C(=O)N[C@H]1CCC(=O)NCCCC[C@@H](C(N)=O)NC(=O)[C@H](Cc2c[nH]c3ccccc23)NC(=O)[C@H](CCCNC(=N)N)NC(=O)[C@@H](Cc2ccccc2)NC(=O)[C@@H]2C[C@@H](O)CN2C1=O

>  <Class label>
1

$$$$
>  <Compound string>
CCCCCCCCCCCCCCCC(=O)NCC(=O)NCC(=O)NCC(=O)NCC(=O)NCC(=O)N[C@@H](CCCC)C(=O)N[C@H]1CCC(=O)NCCCC[C@@H](C(N)=O)NC(=O)[C@H](Cc2c[nH]c3ccccc23)NC(=O)[C@H](CCCNC(=N)N)NC(=O)[C@@H](Cc2ccccc2)NC(=O)[C@@H]2C[C@@H](O)CN2C1=O

>  <Class label>
1

$$$$

Would you kindly look at the next entry?
Prompt: Is Ki strictly under 40 nM for the entry CCCC[C@H](NC(=O)[C@H](CN(C)C)NC(=O)[C@H](Cc1cnc[nH]1)NC(=O)[C@H](CCC(N)=O)NC(=O)[C@H](CO)NC(=O)CNC(=O)COCCOCCNC(=O)CCCCCCCCCCCCCCCc1nnn[nH]1)C(=O)N[C@H]1CCC(=O)NCCCC[C@@H](C(N)=O)NC(=O)[C@H](Cc2c[nH]c3ccccc23)NC(=O)[C@H](CCCNC(=N)N)NC(=O)[C@@H](Cc2ccccc2)NC(=O)[C@@H]2C[C@@H](O)CN2C1=O ?
Completion: 1

----------
Please respond with reported pKi for every item in the list.
Biological target: Melanocyte-stimulating hormone receptor (Homo sapiens)
Assay: Displacement of [125I]-NAD-alpha-MSH from human recombinant MC1 receptor expressed in BHK570 cells after 90 mins in presence of ovalbumin
Answers are plain numbers, as −log10 of the molar value.

>  <Compound>
CCCC[C@H](NC(C)=O)C(=O)N[C@H]1CC(=O)NCCCC[C@@H](C(=O)O)NC(=O)[C@H](Cc2c[nH]c3ccccc23)NC(=O)[C@H](CCCNC(=N)N)NC(=O)[C@@H](Cc2ccccc2)NC(=O)[C@H](Cc2c[nH]cn2)NC1=O [BREMELANOTIDE]

>  <Tested system>
Melanocyte-stimulating hormone receptor (Homo sapiens)

>  <Measured property>
pKi

>  <Data value>
8.19

$$$$

Now, please, on to the next compound.
// returns pKi for CCCCCCCCCCCCCCCC(=O)NS(=O)(=O)CCCC(=O)NCC(=O)N[C@@H](CO)C(=O)N[C@@H](CCC(N)=O)C(=O)N[C@@H](Cc1cnc[nH]1)C(=O)N[C@@H](CO)C(=O)N[C@@H](CCCC)C(=O)N[C@H]1CCC(=O)NCCCC[C@@H](C(N)=O)NC(=O)[C@H](Cc2c[nH]c3ccccc23)NC(=O)[C@H](CCCNC(=N)N)NC(=O)[C@@H](Cc2ccccc2)NC(=O)[C@@H]2C[C@@H](O)CN2C1=O with Melanocyte-stimulating hormone receptor (Homo sapiens); value = 6.64

----------
Please respond with reported Food intake relative to control for every item in the list.
Test system: Rattus norvegicus
Experiment: Antiobesity activity in Sprague-Dawley rat assessed as reduction of food intake at 3 mg/kg, sc qd measured after 24 to 48 hrs relative to control
Assay type: functional
Conditions: route subcutaneous
Answers are plain numbers, in %.

>  <Compound string>
CCCC[C@H](NC(=O)[C@H](CN(C)C)NC(=O)[C@H](Cc1cnc[nH]1)NC(=O)[C@H](CCC(N)=O)NC(=O)[C@H](CO)NC(=O)CNC(=O)COCCOCCNC(=O)CCCCCCCCCCCCCCCc1nnn[nH]1)C(=O)N[C@H]1CCC(=O)NCCCC[C@@H](C(N)=O)NC(=O)[C@H](Cc2c[nH]c3ccccc23)NC(=O)[C@H](CCCNC(=N)N)NC(=O)[C@@H](Cc2ccccc2)NC(=O)[C@@H]2C[C@@H](O)CN2C1=O

>  <Data value>
82

$$$$

Item: CCCCCCCCCCCCCCCC(=O)NCC(=O)N[C@@H](CO)C(=O)N[C@@H](CCC(N)=O)C(=O)N[C@@H](Cc1cnc[nH]1)C(=O)N[C@@H](CO)C(=O)N[C@@H](CCCC)C(=O)N[C@H]1CCC(=O)NCCCC[C@@H](C(N)=O)NC(=O)[C@H](Cc2c[nH]c3ccccc23)NC(=O)[C@H](CCCNC(=N)N)NC(=O)[C@@H](Cc2ccccc2)NC(=O)[C@@H]2C[C@@H](O)CN2C1=O | Food intake relative to control: 81

----------
Please respond with reported Ki for every item in the list.
Molecular target: Melanocyte-stimulating hormone receptor (Homo sapiens, UniProt Q01726)
Sequence (Q01726 whole entry): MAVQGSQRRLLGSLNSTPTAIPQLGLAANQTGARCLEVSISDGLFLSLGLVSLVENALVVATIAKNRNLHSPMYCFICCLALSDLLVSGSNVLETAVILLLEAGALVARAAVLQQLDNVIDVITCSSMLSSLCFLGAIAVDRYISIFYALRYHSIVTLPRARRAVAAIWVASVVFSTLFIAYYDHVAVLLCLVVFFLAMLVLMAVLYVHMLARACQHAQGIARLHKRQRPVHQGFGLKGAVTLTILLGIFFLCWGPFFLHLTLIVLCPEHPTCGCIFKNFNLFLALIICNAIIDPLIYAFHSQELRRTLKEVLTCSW
Assay: Displacement of [125I]-NAD-alpha-MSH from human recombinant MC1 receptor expressed in BHK570 cells after 90 mins in presence of ovalbumin
Numbers only, in nM.

>  <Compound string>
CCCC[C@H](NC(=O)[C@H](CCC(=O)O)NC(=O)[C@H](Cc1c[nH]cn1)NC(=O)[C@H](CCC(=O)O)NC(=O)[C@H](CCC(=O)O)NC(=O)CNC(=O)COCCOCCNC(=O)CCCCCCCCCCCCCCCc1nnn[nH]1)C(=O)N[C@H]1CCC(=O)NCCCC[C@@H](C(N)=O)NC(=O)[C@H](Cc2c[nH]c3ccccc23)NC(=O)[C@H](CCCNC(=N)N)NC(=O)[C@@H](Cc2ccccc2)NC(=O)[C@@H]2C[C@@H](O)CN2C1=O

>  <Ki [nM]>
8100

$$$$

Hi there! I need Ki for each item below, if you can.
1. CCCC[C@H](NC(=O)[C@H](CNC(C)C)NC(=O)[C@H](Cc1cnc[nH]1)NC(=O)[C@H](CCC(N)=O)NC(=O)[C@H](CO)NC(=O)CNC(=O)COCCOCCNC(=O)CCCCCCCCCCCCCCCc1nnn[nH]1)C(=O)N[C@H]1CCC(=O)NCCCC[C@@H](C(N)=O)NC(=O)[C@H](Cc2c[nH]c3ccccc23)NC(=O)[C@H](CCCNC(=N)N)NC(=O)[C@@H](Cc2ccccc2)NC(=O)[C@@H]2C[C@@H](O)CN2C1=O
2. CCCCCCCCCCCCCCCC(=O)NCC(=O)N[C@@H](CO)C(=O)N[C@@H](CCC(N)=O)C(=O)N[C@@H](CCCCNC(=N)N)C(=O)N[C@@H](CO)C(=O)N[C@@H](CCCC)C(=O)N[C@H]1CCC(=O)NCCCC[C@@H](C(N)=O)NC(=O)[C@H](Cc2c[nH]c3ccccc23)NC(=O)[C@H](CCCNC(=N)N)NC(=O)[C@@H](Cc2ccccc2)NC(=O)[C@@H]2C[C@@H](O)CN2C1=O
3. CCCC[C@H](NC(=O)[C@H](CN(C)C)NC(=O)[C@H](Cc1cnc[nH]1)NC(=O)[C@H](CCC(N)=O)NC(=O)[C@H](CO)NC(=O)CNC(=O)COCCOCCNC(=O)CCCCCCCCCCCCCCCc1nnn[nH]1)C(=O)N[C@H]1CCC(=O)NCCCC[C@@H](C(N)=O)NC(=O)[C@H](Cc2c[nH]c3ccccc23)NC(=O)[C@H](CCCNC(=N)N)NC(=O)[C@@H](Cc2ccccc2)NC(=O)[C@@H]2C[C@@H](O)CN2C1=O

Completion:
1. 270
2. 3.2
3. 440

Source of measurements: ChEMBL document CHEMBL2069212
